assay: method code SF, from DOI: 10.1016/j.ejps.2012.10.019, PMID: 23131797; details: pH 5.0
Assay readout: logD
# output: bare number, no unit

            compound_string  assay_readout  data_value
0  O=C(c1c(F)cccc1F)N1CCCC1           logD        1.88

I would be grateful if you could share the reported logD for C=CCOC(=O)COc1ccc2c(=O)c(-c3ccc(Cl)cc3)c(C)oc2c1 .
4.84

Please give the measured logD for this molecule: COC(=O)c1ccc(Br)c(S(=O)(=O)N2CCCCC2)c1
3.66

logD lookup needed for CCc1ccc(OCC(=O)NCCc2ccc(OC)c(OC)c2)cc1 , thanks.
4.22
